- measurement description: gradient 5% acetonitrile 3 min, to 50% in 2 min, to 85% in 15 min, held 3 min, 100 µL/min
- measurement setup: column: Zorbax Extend-C18 2.1 x 50 mm; eluents: water / acetonitrile, 0.1% formic acid
quantity: RP-LC retention time (s)
Lab book: enter the figure in s, no units written.

Would you please look over these solved cases?
compound	reported
Cc1ccc(CC(=O)N(CCS(=O)(=O)N2CCNCC2)CC2CCCO2)cc1 (centres undefined)	645
O=C(NCCc1ccc(F)cc1)C1CC(=O)N(CCc2c[nH]c3ccc(Cl)cc23)C1 (centres undefined)	830
O=C(C1CC1)N1CCc2ccc(NS(=O)(=O)/C=C/c3ccccc3)cc21	819
CCOC(=O)C1CCN(C(=O)c2cc3sc(C)cc3n2C)CC1	951
CC(C)N1C(=O)C(C)(C(=O)NCc2ccccc2Cl)Oc2cccnc21 (centres undefined)	974

Short answer for O=C(Cn1nc2n(c1=O)CCCC2)Nc1ccc(Br)cc1 : RP-LC retention time was 703

Short answer for COc1ccc(CCNC(=O)C2CCN(S(C)(=O)=O)c3ccccc3O2)cc1 (centres undefined) : RP-LC retention time was 828

Summary for this compound, O=C(Cc1nnc(-c2cnccn2)o1)NCc1ccccc1 : RP-LC retention time is 635

According to the records, this compound CCCN1CCN(c2cc(C(=O)O)c3cc(NS(=O)(=O)c4ccc(OCC)cc4)ccc3n2)CC1 displays RP-LC retention time of 624

The compound identified as O=C(NCCc1noc(C2CC2)n1)C1CCC1 registered its RP-LC retention time at 651

// recorded RP-LC retention time for Cc1nc(N2CCCC(C(=O)NC3CCCC3)C2)c2c(C)c(C)oc2n1 (centres undefined) : 799
